Give OD450 for every item shown.
- target: T1, human MSLN-R3 protein (human, UniProt Q13421 487-598)
- T1 construct: also called hMSLN-R3
- T1 sequence (Q13421 495-606, form in doubt): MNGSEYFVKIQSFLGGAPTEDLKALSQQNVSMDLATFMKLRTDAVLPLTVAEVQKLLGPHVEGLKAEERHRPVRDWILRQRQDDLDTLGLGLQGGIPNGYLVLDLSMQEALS
- assay: ELISA on coated antigen, antibody 100 nM
Output should be the measured figure followed by the unit it is expressed in.

Item under review: F7.33.24-H2 (scFv, not shown: small tags and cut ends, also called S009-F7.33.24 humanized antibody VH1 + VL2) scFv: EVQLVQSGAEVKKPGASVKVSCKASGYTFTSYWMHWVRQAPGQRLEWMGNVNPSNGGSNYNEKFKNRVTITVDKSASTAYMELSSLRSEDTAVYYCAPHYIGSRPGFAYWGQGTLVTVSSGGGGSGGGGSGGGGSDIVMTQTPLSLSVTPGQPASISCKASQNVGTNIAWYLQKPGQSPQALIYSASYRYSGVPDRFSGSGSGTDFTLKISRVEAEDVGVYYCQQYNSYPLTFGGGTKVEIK . Reported OD450?
1.9 OD450

Check Tab110 (scFv, not shown: small tags and cut ends, also called YP218 VH-(G4S)3-VL-his antibody; positive control) scFv: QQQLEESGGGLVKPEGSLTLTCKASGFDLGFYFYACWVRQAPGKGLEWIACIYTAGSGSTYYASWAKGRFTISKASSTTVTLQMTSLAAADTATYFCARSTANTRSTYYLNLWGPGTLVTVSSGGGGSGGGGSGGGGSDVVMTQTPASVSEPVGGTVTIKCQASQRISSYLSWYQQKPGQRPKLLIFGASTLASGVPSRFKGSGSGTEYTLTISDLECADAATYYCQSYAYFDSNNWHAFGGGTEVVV too.
0.98 OD450

Check Tab111 (scFv, not shown: small tags and cut ends, also called YP218 VL-(G4S)3-VH-his antibody; positive control) scFv: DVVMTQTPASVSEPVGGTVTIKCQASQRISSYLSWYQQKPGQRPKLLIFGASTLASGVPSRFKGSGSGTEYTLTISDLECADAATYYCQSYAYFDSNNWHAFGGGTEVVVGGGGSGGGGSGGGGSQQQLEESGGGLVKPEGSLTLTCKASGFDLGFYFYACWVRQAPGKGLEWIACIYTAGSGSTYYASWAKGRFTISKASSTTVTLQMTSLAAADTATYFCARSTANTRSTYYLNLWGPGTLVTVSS too.
2.1 OD450

Check F7.33.24-H3 (scFv, not shown: small tags and cut ends, also called S009-F7.33.24 humanized antibody VH1 + VL3) scFv: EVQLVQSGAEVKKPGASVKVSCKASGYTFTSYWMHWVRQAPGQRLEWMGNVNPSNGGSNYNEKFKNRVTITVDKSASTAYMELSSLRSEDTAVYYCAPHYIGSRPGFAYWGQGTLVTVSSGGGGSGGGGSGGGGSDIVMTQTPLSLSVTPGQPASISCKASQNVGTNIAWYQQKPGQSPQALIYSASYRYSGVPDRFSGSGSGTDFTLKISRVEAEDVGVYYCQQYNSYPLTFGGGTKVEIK too.
1.91 OD450

Check F7.33.24-H4 (scFv, not shown: small tags and cut ends, also called S009-F7.33.24 humanized antibody VH1a + VL1) scFv: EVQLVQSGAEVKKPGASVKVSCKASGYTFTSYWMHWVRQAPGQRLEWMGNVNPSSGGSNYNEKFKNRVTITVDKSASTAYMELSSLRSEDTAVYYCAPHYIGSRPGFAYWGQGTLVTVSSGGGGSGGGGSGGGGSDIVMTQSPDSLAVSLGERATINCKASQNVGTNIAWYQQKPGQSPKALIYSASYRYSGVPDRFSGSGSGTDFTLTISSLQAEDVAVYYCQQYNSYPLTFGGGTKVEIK too.
1.95 OD450
